- measured-target: CYP2C19 (Homo sapiens, UniProt P33261)
- Construct: Pooled human microsomes and selective CYP probe substrates were used; from tissue; host or cells: pooled human liver microsomes
- Sequence (P33261 whole entry): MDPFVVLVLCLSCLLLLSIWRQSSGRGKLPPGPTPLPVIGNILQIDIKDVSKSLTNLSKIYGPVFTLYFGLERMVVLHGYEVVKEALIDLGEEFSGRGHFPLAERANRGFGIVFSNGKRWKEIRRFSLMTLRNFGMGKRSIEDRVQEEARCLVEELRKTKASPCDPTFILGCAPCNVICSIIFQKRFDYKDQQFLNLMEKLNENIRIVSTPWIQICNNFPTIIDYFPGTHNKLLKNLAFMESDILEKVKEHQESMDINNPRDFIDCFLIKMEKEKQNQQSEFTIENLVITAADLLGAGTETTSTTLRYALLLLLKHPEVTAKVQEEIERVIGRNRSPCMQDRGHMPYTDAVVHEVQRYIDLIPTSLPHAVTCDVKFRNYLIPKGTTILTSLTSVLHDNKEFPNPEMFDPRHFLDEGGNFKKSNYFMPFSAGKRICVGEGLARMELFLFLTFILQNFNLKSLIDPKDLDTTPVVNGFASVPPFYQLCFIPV
- test-description: Time-dependent inhibition of CYP2C19 in human liver microsomes
- Format: in vitro ADME
- experimental-setup: pooled human liver microsomes; CYP2C19, 50 μM, human liver microsomes, after 30 minutes incubation; read-out: % Activity NADPH T30
quantity-kind: activity at 30 min, 50 µM (%)
Note: unit % is implicit; provide only the numeric part.

Please review the entries below; each comes with its answer.
INSERT INTO assay_data (smiles, quantity_kind, data_value) VALUES
  ('CC(C)N1CC(=O)N(Cc2ccc(Cl)c(F)c2)C2(CN(c3cccnn3)C2)C1=O', 'activity at 30 min, 50 µM', 92),
  ('C[C@H]1CC[C@H](N2CC(=O)N(Cc3ccc(Cl)cc3)C3(CN(C(N)=O)C3)C2=O)CC1', 'activity at 30 min, 50 µM', 84);

[ask] # lookup: activity at 30 min, 50 µM of `Cc1cc(CN2C(=O)CN([C@H]3CC[C@H](C)CC3)C(=O)C23CN(C(N)=O)C3)ccc1F`
[reply] 92

[ask] Here is the next compound: `C[C@H]1CC[C@H](N2CC(=O)N(Cc3ccc(F)c(F)c3)C3(CN(C(N)=O)C3)C2=O)CC1`
[reply] 77

[ask] Here is the next compound: `C[C@H]1CC[C@H](N2CC(=O)N(Cc3ccc(F)c(Cl)c3)C3(CN(C(N)=O)C3)C2=O)CC1`
[reply] 83

[ask] Here is the next compound: `CC(C)N1CC(=O)N(Cc2ccc(C(F)(F)F)cc2)C2(CN(c3cccnn3)C2)C1=O`
[reply] 119
